Can you tell me pKi for the items I'm about to list?
tgt: Sodium-dependent serotonin transporter (Homo sapiens)
Sequence (P31645 whole entry): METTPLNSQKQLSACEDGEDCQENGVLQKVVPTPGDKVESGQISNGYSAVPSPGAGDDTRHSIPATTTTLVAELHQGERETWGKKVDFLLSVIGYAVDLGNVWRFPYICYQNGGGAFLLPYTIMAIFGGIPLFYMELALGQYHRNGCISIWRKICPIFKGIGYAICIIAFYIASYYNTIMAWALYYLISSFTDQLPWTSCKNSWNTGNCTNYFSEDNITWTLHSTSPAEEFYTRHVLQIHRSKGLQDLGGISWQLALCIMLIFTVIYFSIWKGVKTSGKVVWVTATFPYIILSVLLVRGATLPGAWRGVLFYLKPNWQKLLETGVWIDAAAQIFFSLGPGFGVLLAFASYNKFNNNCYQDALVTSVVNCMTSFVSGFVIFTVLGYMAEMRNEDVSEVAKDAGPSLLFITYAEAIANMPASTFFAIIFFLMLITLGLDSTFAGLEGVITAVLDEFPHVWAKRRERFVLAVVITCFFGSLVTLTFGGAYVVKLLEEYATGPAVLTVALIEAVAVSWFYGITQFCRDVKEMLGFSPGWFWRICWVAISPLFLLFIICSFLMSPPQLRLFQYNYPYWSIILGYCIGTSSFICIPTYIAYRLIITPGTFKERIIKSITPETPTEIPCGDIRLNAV
Format: cell membranes
pKi: −log10 of the molar value.

substance-smiles: N[C@@]1(C(=O)O)C[C@H](C(=O)O)C[C@@H]1C(=O)O
pKi: < 4.30

Below is a list of compounds. For each, state its recorded pKi.
1. N[C@]1(C(=O)O)C[C@@H](C(=O)O)C[C@H]1C(=O)O
2. N[C@@]1(C(=O)O)C[C@@H](C(=O)O)C[C@H]1C(=O)O
3. N[C@]1(C(=O)O)C[C@H](C(=O)O)C[C@@H]1C(=O)O

[5.00, "< 4.30", "< 4.30"]

====

tgt: Metabotropic glutamate receptor 6 (Homo sapiens)
experiment: Agonist activity at mGluR6 expressed in CHO cells assessed as decrease in cAMP accumulation at 10 uM
Format: functional, cell-based
Calls of active or inactive are those of the source. No cut-off for these calls is given here.

substance-smiles: N[C@]1(C(=O)O)C[C@H](C(=O)O)C[C@@H]1C(=O)O
tgt: Metabotropic glutamate receptor 6 (Homo sapiens)
Activity: inactive

substance-smiles: N[C@]1(C(=O)O)C[C@@H](C(=O)O)C[C@H]1C(=O)O
tgt: Metabotropic glutamate receptor 6 (Homo sapiens)
Activity: inactive

substance-smiles: N[C@@]1(C(=O)O)C[C@@H](C(=O)O)C[C@H]1C(=O)O
tgt: Metabotropic glutamate receptor 6 (Homo sapiens)
Activity: 30%

substance-smiles: N[C@@]1(C(=O)O)C[C@H](C(=O)O)C[C@@H]1C(=O)O
tgt: Metabotropic glutamate receptor 6 (Homo sapiens)
Activity: inactive

====

tgt: 5-hydroxytryptamine receptor 2A (Rattus norvegicus)
Sequence (P14842 whole entry): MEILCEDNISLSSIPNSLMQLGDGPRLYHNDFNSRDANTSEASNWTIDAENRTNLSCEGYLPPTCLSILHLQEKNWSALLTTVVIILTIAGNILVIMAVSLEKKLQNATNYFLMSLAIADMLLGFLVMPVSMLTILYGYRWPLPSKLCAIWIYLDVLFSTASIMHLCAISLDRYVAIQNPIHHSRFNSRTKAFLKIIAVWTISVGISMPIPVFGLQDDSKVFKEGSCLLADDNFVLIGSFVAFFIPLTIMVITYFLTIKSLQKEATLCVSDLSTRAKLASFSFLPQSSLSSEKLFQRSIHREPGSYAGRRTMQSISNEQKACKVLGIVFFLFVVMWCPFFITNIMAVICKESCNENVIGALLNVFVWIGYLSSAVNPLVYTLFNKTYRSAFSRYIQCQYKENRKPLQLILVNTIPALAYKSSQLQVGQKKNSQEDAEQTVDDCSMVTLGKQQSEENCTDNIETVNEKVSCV
pKi: −log10 of the molar value.
readout: pKi

So what's the measured pKi for this one? N[C@@]1(C(=O)O)C[C@@H](C(=O)O)C[C@H]1C(=O)O < 4.30
